This collection of values is drawn from paper PMC12017303.

Experiment: physchem
Conditions: pH 7.4, aqueous buffer, kinetic from dmso stock
EXPERIMENTAL ENDPOINT: solubility (µM)
One number for each entry, in µM.

These solved cases illustrate the format of a correct answer.
O=c1[nH]c(-c2ccc(Cl)c(Cl)c2)c(-n2nnc3cc(F)c(F)cc32)c(=O)n1-c1cncc2ccccc12 : 475
C#CCn1c(C)c(-n2nnc3cc(F)c(F)cc32)c(=O)n(-c2cncc3ccccc23)c1=O : 431
C#CCn1c(-c2ccc(Cl)c(Cl)c2)c(-n2nnc3cc(F)c(F)cc32)c(=O)n(-c2cncc3ccccc23)c1=O : 2.4

Okay, now this compound:
Entry `C#CCn1c(C)c(-n2nnc3ccccc32)c(=O)n(-c2cncc3ccccc23)c1=O` : reported solubility = ?
347

* * *

Give Tmax for every item shown.
Assay: in vivo
Conditions: male, CD-1, mouse, po, 50 mg/kg, Tmax
Remember to put the unit after the number in your answer.

Sample answers from the record:
C#CCn1c(C)c(-n2nnc3ccccc32)c(=O)n(-c2cncc3ccccc23)c1=O : 1 h
O=c1[nH]c(-c2ccc(Cl)c(Cl)c2)c(-n2nnc3cc(F)c(F)cc32)c(=O)n1-c1cncc2ccccc12 : 2 h
C#CCn1c(C)c(-n2nnc3cc(F)c(F)cc32)c(=O)n(-c2cncc3ccccc23)c1=O : 0.5 h

Would you kindly look at the next entry?
So what's the measured Tmax for this one? `C#CCn1c(-c2ccc(Cl)c(Cl)c2)c(-n2nnc3cc(F)c(F)cc32)c(=O)n(-c2cncc3ccccc23)c1=O`
4 h

* * *

Test: in vivo
Details: male, CD-1, mouse, F
I'd be grateful if you could share measured bioavailability for these entries.
Answers are plain numbers, in %.

Previously resolved entries follow.
O=c1[nH]c(-c2ccc(Cl)c(Cl)c2)c(-n2nnc3cc(F)c(F)cc32)c(=O)n1-c1cncc2ccccc12 : 71.6
C#CCn1c(C)c(-n2nnc3cc(F)c(F)cc32)c(=O)n(-c2cncc3ccccc23)c1=O : 110
C#CCn1c(-c2ccc(Cl)c(Cl)c2)c(-n2nnc3cc(F)c(F)cc32)c(=O)n(-c2cncc3ccccc23)c1=O : 63.5

Next compound, please.
Looking for the measured bioavailability of `C#CCn1c(C)c(-n2nnc3ccccc32)c(=O)n(-c2cncc3ccccc23)c1=O` , can you help?
174

* * *

Test: in vivo
Settings: male, CD-1, mouse, iv, 10 mg/kg, AUClast
EXPERIMENTAL ENDPOINT: AUC(0-t) (ng·h/mL)
One number for each entry, in ng·h/mL.

Please review the entries below; each comes with its answer.
C#CCn1c(C)c(-n2nnc3ccccc32)c(=O)n(-c2cncc3ccccc23)c1=O : 5730
C#CCn1c(C)c(-n2nnc3cc(F)c(F)cc32)c(=O)n(-c2cncc3ccccc23)c1=O : 17200
C#CCn1c(-c2ccc(Cl)c(Cl)c2)c(-n2nnc3cc(F)c(F)cc32)c(=O)n(-c2cncc3ccccc23)c1=O : 17300

Kindly review the next compound as well.
Which AUC(0-t) is listed for `O=c1[nH]c(-c2ccc(Cl)c(Cl)c2)c(-n2nnc3cc(F)c(F)cc32)c(=O)n1-c1cncc2ccccc12` ?
3100

* * *

Assay: in vivo
Conditions: male, CD-1, mouse, iv, 10 mg/kg
Answer each item with its documented half-life.
Give bare numbers, in h.

Solved cases (3 shown):
O=c1[nH]c(-c2ccc(Cl)c(Cl)c2)c(-n2nnc3cc(F)c(F)cc32)c(=O)n1-c1cncc2ccccc12 : 2.19
C#CCn1c(C)c(-n2nnc3cc(F)c(F)cc32)c(=O)n(-c2cncc3ccccc23)c1=O : 1.22
C#CCn1c(-c2ccc(Cl)c(Cl)c2)c(-n2nnc3cc(F)c(F)cc32)c(=O)n(-c2cncc3ccccc23)c1=O : 1.72

Now look at this entry.
Param item = `C#CCn1c(C)c(-n2nnc3ccccc32)c(=O)n(-c2cncc3ccccc23)c1=O` ; retrieve measured half-life.
0.866

* * *

Kindly supply the reported Cmax values for the records listed here.
Assay: in vivo
Conditions: male, CD-1, mouse, po, 50 mg/kg, Cmax
Answer with the value and then the unit.

Give me Cmax for each of these compounds, listed below.
1. O=c1[nH]c(-c2ccc(Cl)c(Cl)c2)c(-n2nnc3cc(F)c(F)cc32)c(=O)n1-c1cncc2ccccc12
2. C#CCn1c(C)c(-n2nnc3cc(F)c(F)cc32)c(=O)n(-c2cncc3ccccc23)c1=O
3. C#CCn1c(-c2ccc(Cl)c(Cl)c2)c(-n2nnc3cc(F)c(F)cc32)c(=O)n(-c2cncc3ccccc23)c1=O
4. C#CCn1c(C)c(-n2nnc3ccccc32)c(=O)n(-c2cncc3ccccc23)c1=O

1: 2420 ng/mL; 2: 14900 ng/mL; 3: 5770 ng/mL; 4: 10100 ng/mL

* * *

Consider the following compounds; for each one, report its Cmax.
Assay: in vivo
Details: male, CD-1, mouse, po, 50 mg/kg, CMax
Answers are plain numbers, in ng/mL.

O=c1[nH]c(-c2ccc(Cl)c(Cl)c2)c(-n2nnc3cc(F)c(F)cc32)c(=O)n1-c1cncc2ccccc12 [AVI-4673] : 2420
C#CCn1c(C)c(-n2nnc3cc(F)c(F)cc32)c(=O)n(-c2cncc3ccccc23)c1=O [AVI-4773] : 14900
C#CCn1c(C)c(-n2nnc3ccccc32)c(=O)n(-c2cncc3ccccc23)c1=O [AVI-4516] : 10100

Here is the next item to consider.
Fill in the blank: the reported Cmax of C#CCn1c(-c2ccc(Cl)c(Cl)c2)c(-n2nnc3cc(F)c(F)cc32)c(=O)n(-c2cncc3ccccc23)c1=O [AVI-4694] is ____.
5770

* * *

Assay: in vivo
Details: male, CD-1, mouse, po, 50 mg/kg
EXPERIMENTAL ENDPOINT: half-life (h)
Numbers only, in h.

C#CCn1c(-c2ccc(Cl)c(Cl)c2)c(-n2nnc3cc(F)c(F)cc32)c(=O)n(-c2cncc3ccccc23)c1=O [AVI-4694] : 1.87
O=c1[nH]c(-c2ccc(Cl)c(Cl)c2)c(-n2nnc3cc(F)c(F)cc32)c(=O)n1-c1cncc2ccccc12 [AVI-4673] : 2.12
C#CCn1c(C)c(-n2nnc3ccccc32)c(=O)n(-c2cncc3ccccc23)c1=O [AVI-4516] : 4.7

Recorded half-life of C#CCn1c(C)c(-n2nnc3cc(F)c(F)cc32)c(=O)n(-c2cncc3ccccc23)c1=O [AVI-4773] , please.
13

* * *

Assay: in vivo
Conditions: male, CD-1, mouse, iv, 10 mg/kg, AUCINF
EXPERIMENTAL ENDPOINT: AUC(0-inf) (ng·h/mL)
Give bare numbers, in ng·h/mL.

Report AUC(0-inf) for each item below.
1. C#CCn1c(C)c(-n2nnc3cc(F)c(F)cc32)c(=O)n(-c2cncc3ccccc23)c1=O [AVI-4773]
2. C#CCn1c(C)c(-n2nnc3ccccc32)c(=O)n(-c2cncc3ccccc23)c1=O [AVI-4516]
3. C#CCn1c(-c2ccc(Cl)c(Cl)c2)c(-n2nnc3cc(F)c(F)cc32)c(=O)n(-c2cncc3ccccc23)c1=O [AVI-4694]
4. O=c1[nH]c(-c2ccc(Cl)c(Cl)c2)c(-n2nnc3cc(F)c(F)cc32)c(=O)n1-c1cncc2ccccc12 [AVI-4673]

1: 17400; 2: 5740; 3: 17800; 4: 3220

* * *

Test: in vivo
Conditions: male, CD-1, mouse, po, 50 mg/kg, AUCINF
EXPERIMENTAL ENDPOINT: AUC(0-inf) (ng·h/mL)
Numbers only, in ng·h/mL.

// worked examples, AUC(0-inf) included
C#CCn1c(-c2ccc(Cl)c(Cl)c2)c(-n2nnc3cc(F)c(F)cc32)c(=O)n(-c2cncc3ccccc23)c1=O : 56500
C#CCn1c(C)c(-n2nnc3ccccc32)c(=O)n(-c2cncc3ccccc23)c1=O : 69500
O=c1[nH]c(-c2ccc(Cl)c(Cl)c2)c(-n2nnc3cc(F)c(F)cc32)c(=O)n1-c1cncc2ccccc12 : 11500

Could you now look at the following molecule, please?
Entry `C#CCn1c(C)c(-n2nnc3cc(F)c(F)cc32)c(=O)n(-c2cncc3ccccc23)c1=O` : reported AUC(0-inf) = ?
273000

* * *

System: Rhabdomyosarcoma
EXPERIMENTAL ENDPOINT: CC50 (µM)
Answers are plain numbers, in µM.

I'd like to know its CC50. The compound in question is O=c1nc(NO)ccn1[C@@H]1O[C@H](CO)[C@@H](O)[C@H]1O [EIDD-1931, reference compound]
6.1

* * *

Test: in vitro
Details: plasma, pH 7.4, plasma protein binding (PPB)
EXPERIMENTAL ENDPOINT: fraction unbound
Numbers only.

C#CCn1c(C)c(-n2nnc3ccccc32)c(=O)n(-c2cncc3ccccc23)c1=O : 0.39

Fill blank: measured fraction unbound of the molecule `C#CCn1c(C)c(-n2nnc3cc(F)c(F)cc32)c(=O)n(-c2cncc3ccccc23)c1=O` is ____.
0.17

* * *

System: P-gp (MDR1)
Assay: in vitro
Settings: dog, MDCK-MDR1
EXPERIMENTAL ENDPOINT: Papp B→A (×10⁻⁶ cm/s)
One number for each entry, in ×10⁻⁶ cm/s.

C#CCn1c(C)c(-n2nnc3cc(F)c(F)cc32)c(=O)n(-c2cncc3ccccc23)c1=O [AVI-4773] : 70.8

Quick one: give me Papp B→A for each item below, same order please.
1. C#CCn1c(C)c(-n2nnc3ccccc32)c(=O)n(-c2cncc3ccccc23)c1=O [AVI-4516]
2. C#CCn1c(-c2ccc(Cl)c(Cl)c2)c(-n2nnc3cc(F)c(F)cc32)c(=O)n(-c2cncc3ccccc23)c1=O [AVI-4694]
3. O=c1[nH]c(-c2ccc(Cl)c(Cl)c2)c(-n2nnc3cc(F)c(F)cc32)c(=O)n1-c1cncc2ccccc12 [AVI-4673]

1. 45.2
2. 13.8
3. 18.4
